# PROCEDURE DETAILS: soluble on expression in E. coli; label from the status in PepcDB or PDB records
PARAMETER MEASURED: soluble on expression in E. coli

MAHHHHHHMAADEDAREHRTMCRLLQAATGKLSDMTVTTNIETHIATLRAANMSTSPKEWHALFNSKNNSNAYEKLSAEGKKEAGALGGAAAWGAWRTDKEEAEKKKIGTQEDKDFPAIADARQQFAAHNRLLELTAKAVEISKKWKAAKDFITNDETNNIQKLLREALYEDGAAADALTQSTSFGTGSNWASHCNGDDKRKSISGDFLCMRGGSGGAAKECSGAFTGAEIDNQGTITTKWADLKASCALNTENVITPHEIAAALGSLARQPHTTRSSK : not soluble
MGSDKIHHHHHHMAATSNQIKSKVWDNKQEYHLTIESLRMLLENRIPLIRLKEFATPQECEILVAQAELFNFDCYQNVNPKIERIGITVFEYNRISKAAYFQAVERTTKLRDCIMAASFNPLERLMVKIQECTGATVRIASEPLYGSYYAGLIRKIEQGTQLHIDYAPLEQSKWEIGTVIYQLSWNLYLKFSPNNHGQTRIYDRQWQPGDEQYKLDSYGYGDTVIADADTIAFQPYVGDVFIFNTRNYHTVEPMDGQRVTFTSAIGLLPNGEIILWS : not soluble

###

# PROCEDURE DETAILS: soluble on expression in E. coli; label from the status in PepcDB or PDB records
PARAMETER MEASURED: soluble on expression in E. coli

MSLAKYKKLFEPYTLNNDVVLKNRLVVAPLTIYDSGPDGELTPAAHNFWRNRFRGFGTWIVPFTNVHPSGIGFESPNAFHEENLPTLKAYATISHEQGAKAIIQLAHAGIHADPAMTKGYDLMGPSNLPYMGVRAMTDSEVREMVNAFAYATELAISAGLDGVEIHGANGWLIQQFVSETYNQRTDHWGGSVEKRFNFPLAIIDAIEAVRHKYHRPDFIVGYRFSPEEPGEVGLTMTETLALVDRLLDKPLQYIHISLWNFYKKIRRGGDVKKTRMEAVHDRINGRLPFIGVGDLFAEEQGLKAFNTGWADLLAVGGSVELNPNLIELIKTGQEDQIQSEFDWNEMDSYRFTPAMLYGTLAGNAMFPKVKEGHHHHHH : soluble
MSLKVHHLNESRSQRILWLLEELSLPYEIVQHTRDAKTRLAPPSLTDVHPLGKSPVIQDGALVVIESGAIIDYIIRRHGGGRLAPDAASADYDRYQQWLHYAEGSAMLPLMLNMYVGRLGEAGAPLHPRIQSEIANHLAFVNDSLAGRDYFVGDSLTGADIQMSFVPEVAKAMGKLADYPHMAAWIGRMHARPAWKTALDKGGPYALGAEGHHHHHH : soluble

###

# PROCEDURE DETAILS: soluble on expression in E. coli; label from the status in PepcDB or PDB records
PARAMETER MEASURED: soluble on expression in E. coli

Here is how some sequences turned out for soluble on expression in E. coli.
MSLSIRLHIWGDYACFTRPEMKVERVSYDVMTPSAARGILEAIHWKPAIRWHIDRLHVLKPIRFQSIRRNEVGAKASASNAKSAMKKGSTEGLGIVVDENRQQRAAMVLTNVAYVIEAHFTMTEKAGPEDTPAKHLSMFNRRAAKGQCFHRPCLGTREFAAEFALLGENDPLPEAKPRLEVRDDDFGWMLHDIDFASGRNESHFFRAVMKDGVIEVPPFKSGEVVKEGHHHHHH : soluble
MGSDKIHHHHHHMIELKNVSMIFNPGTVNENQAISNISLKVREGDFITVIGSNGAGKSTLFNLIAGTITPSSGSIFLNDRNITREPEYKRARYIGRIFQNPLLGTASTMSLEDNMMITYKKGFKWLKRSLNHKMREYFRTELVQLKMGLEDRMKENLALFSGGQRQALTLLMMVLSRPDLILLDEHTAALDPKNAQIVLELTDKFIREYNLTAMMITHNMSHAIEYGNRLLMMDKGEIIFEAEGEEKRALTVEKLIDKFHQIRHTSFENDRTLLSDD : not soluble
MAHHHHHHMASLTVPAHVPSAAEDCEQLRSAFKGWGTNEKLIISILAHRTAAQRKLIRQTYAETFGEDLLKELDRELTHDFEKLVLVWTLDPSERDAHLAKEATKRWTKSNFVLVELACTRSPKELVLAREAYHARYKKSLEEDVAYHTTGDHRKLLVPLVSSYRYGGEEVDLRLAKAESKILHEKISDKAYSDDEVIRILATRSKAQLNATLNHYKDEHGEDILKQLEDGDEFVALLRATIKGLVYPEHYFVEVLRDAINRRGTEEDHLTRVIATRAEVDLKIIADEYQKRDSIPLGRAIAKDTRGDYESMLLALLGQEED : soluble
MAHHHHHHMSFHPRDAFILHQEYIQRLNEGDEVDTSAEQKVELNLQRHADSESAATVTFSHEDHTLGNPLRHVIMEDPSVTSAGYAIPHPLEAKMQLHVQSSEYAVETVAKGLERLAAICDETLKSFNACVEAISAEDPEGH : not soluble

Asked: soluble on expression in E. coli lookup needed for MGSDKIHHHHHHMYETFEKLPDGKKEQIIQVCIEEFIENGYQNASTNTIVKRLGISKGVLFLYFKNKKNLYLYLVEYIMEFFIQDYFEEYAGGPVININVFDNLGEYYKELMQKKPELFLFMLQAFVNTPAELKEEIDARHNQAHDSLFRHMNNEGFRPGIDIHLVDDLLHMVSYYVGQLITNDLKGKDLNTIIKDEINKNIVRYAELFAKYVDILKYGVYER , thanks.
Given back: not soluble

Asked: Item MGHHHHHHSHKDDTDPGQLKGLSAHTHVELPYYSKFILIAAYLASYNPARTDKRFFLKHHGKIKKTNFLKKHEKTSNHLLGPKPFPLDRLLAILYSIVDSRVAPTANIFSQITSLVTLQLLTLVGHDDQLDGPKYKCTVSLDFIRAIARTVNFDIIKYLYDFL has what recorded soluble on expression in E. coli?
Given back: not soluble
